Molecular target: T1, recombinant human IL-23 (human, UniProt P29460 23-328)
T1 construct: also called Human recombinant IL-23
T1 sequence 1: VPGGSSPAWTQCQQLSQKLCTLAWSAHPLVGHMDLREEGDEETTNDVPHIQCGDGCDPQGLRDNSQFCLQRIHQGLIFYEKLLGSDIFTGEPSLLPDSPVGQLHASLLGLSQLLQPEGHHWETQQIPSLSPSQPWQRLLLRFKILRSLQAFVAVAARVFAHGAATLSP
T1 sequence 2: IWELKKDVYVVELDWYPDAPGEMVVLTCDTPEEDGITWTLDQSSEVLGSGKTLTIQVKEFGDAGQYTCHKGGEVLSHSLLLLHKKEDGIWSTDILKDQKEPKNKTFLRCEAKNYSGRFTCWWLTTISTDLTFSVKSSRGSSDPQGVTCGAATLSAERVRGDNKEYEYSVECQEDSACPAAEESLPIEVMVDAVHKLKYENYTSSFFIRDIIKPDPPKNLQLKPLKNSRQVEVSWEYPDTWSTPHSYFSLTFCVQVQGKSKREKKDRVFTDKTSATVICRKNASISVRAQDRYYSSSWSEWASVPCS
Assay: BLI, Fortebio Octet; hybridoma-derived antibody
measured_quantity: pKd
pKd is a log-scale quantity: -log10 of the concentration expressed in molar.

# count of solved cases: 3
# binder, pKd
rows = [
    ("31H9 (antibody, V domains shown, Mouse monoclonal antibody from hybridoma; also called 31H9vk; 31H9vh) VH: EVQLQQSGPELVKPGASVKMSCKASGYTFTRYLMHWVKQKPGQGLEWIGYINPYNDGTNYNEKFKGKATLTSDKSSSTAYMELSSLTSEDSAVYYCSLNWDYAYWGQGTLVTVSA VL: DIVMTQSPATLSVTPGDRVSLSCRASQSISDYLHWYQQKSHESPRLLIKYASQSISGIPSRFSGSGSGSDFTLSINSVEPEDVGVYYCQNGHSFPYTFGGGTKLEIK", 10.94),
    ("34G3 (antibody, V domains shown, Mouse monoclonal antibody from hybridoma; also called 34G3Vk; 34G3VH) VH: EFQLQQSGPELVKPGASVKISCKASGYSFTDYNMNWVKQSKGKSLEWIGVIIPNYGFTSYNQNFKGKATLTVDQSSSTAHMQLNSVTSEDSAVYYCVRDGGILLWYLDVWGTGTTVTVSS VL: DVVMTQTPLSLPVSLGDQASISCRSSQSLVHSNGNTYLHWYLQKPGQSPKLLIYKVSNRFSGVPDRFSGSGSGTDFTLKISRVEAEDLGVYFCSQSTHVPYTFGGGTKLEIN", 10.48),
    ("27G8 (antibody, V domains shown, Mouse monoclonal antibody from hybridoma; also called 27G8vk; 27G8vh) VH: QVQLQQSDAELVKPGASVKISCKVSGYTFTDHTIHWMKQRPEQGLEWIGYIYPRDGYPKFNEKFKGKATLTADKSSSTAYMQLNSLTSEDSAVYFCARRPPYYAMDYWGQGTSVAVSS VL: DIVLTQSPASLAVSLGQRATISCRASKSVSTSGYSYIHWYQQKPGQPPKFLIYLASNLDSGVPARFSGSGSGTDFTLNIHPVEEEDAATYYCQHSRELPYTFGGGTKLEIK", 10.57),
]

**Q:** Item under review: 73H10 (antibody, V domains shown, Mouse monoclonal antibody from hybridoma; also called 73H10Vk; 73H10VH) VH: EVQLQQSGPELVKPGASVKMSCKASGYTFTRYVMHWVKQKPGQGLEWIGYINPYNDVTKYNEKFKGKATLTSDRSSSTAYMKLSSLTSEDSAVYYCARNWDVPYWGQGTLITVSA VL: DIQMTQSPVFLSASVGETVTITCRASENIDSYLAWYQQKQGKSPQLLVFAARNLADGVPSRFSGSGSGTQYSLKINRMQSEDVARYYCQHYYSTPFTFGSGTKLEIE . Reported pKd?
**A:** 10.00

**Q:** What about this binder? 43F5 (antibody, V domains shown, Mouse monoclonal antibody from hybridoma; also called 43F5vk; 43F5vh) VH: EVQLQQSGPELVKPGASVKISCRASGYSFTGYYMNWVKQSPEKSLEWIGEIIPTTGGTSYNQKFKAKATLTVDKSSSTAYMQLKSLTSEDSAVYYCARESGGFYWYFDVWGTGTTVTVSS VL: DVVMTQSPLSLPVSLGDQASISCRSSQSLVHSNGNTYLHWYLLKPGQSPKLLIYKVSNRFSGVPDRFSGSGSGTDFTLKISRVEAEDLGVYFCSQSTHVPYTFGGGTKLEIK
**A:** 10.46

**Q:** What about this binder? 18E5 (antibody, V domains shown, Mouse monoclonal antibody from hybridoma; also called 18E5vk; 18E5vh) VH: EVQLQQSGPELVKPGAAVKMSCKASGYTFTRYLIHWVKQKPGQGLEWIGYINPYNDGTKYNEKFKGKATLTSDKSSSTAYMELSSLTSEDSAVYYCTSNWDLDYWGQGTTLTVSS VL: DIVMTQSPATLSVTPGDRVSLSCRASQSISDYLYWYQQKSHESPRLLIKFASQSISGIPSRFTGSGSGSDFTLSIDSVEPDDVGVFFCQNGHSFPFTFGGGTKLEIK
**A:** 11.10

**Q:** What about this binder? 20E8 (antibody, V domains shown, Mouse monoclonal antibody from hybridoma; also called 20E8vk; 20E8vh) VH: EVQLQQSGPELVKPGASVKMSCKASGYTFTSSVMHWVKQKAGQGLEWIGYINPYNDGTQYNEKFKGKATLTSDKFSSTAYMELSSLTSEDSAVYYCTRRLDEAYWGQGTLVTVSA VL: DIVMTQSPATLSVTPGDRVSLSCRASQSISEYLHWYQQKSHESPRLLIKYASQSISGIPSRFSGSGSGSDFTLSINSVEPEDVGVYYCQNGHSFPFTFGSGTKLEIK
**A:** 9.20

**Q:** What about this binder? 26F7 (antibody, V domains shown, Mouse monoclonal antibody from hybridoma; also called 26F7Vk; 26F7VH) VH: EVQLQQSGPELVKPGASVKISCKASGYTFTDYYMNWVRQSHGESLEWIGDFNHNNDVITYNPKFKGKVTLTVEKSSTTAYMELRSLSSEDSAVYYCARGLRGYYAMDYWGQGTSVTVSS VL: DIVLTQSPASLAVSLGQRATISCRASKSVRFSDYFYMHWYQQKPGQPPKLLIYLASNLESGVPARFSGSGSGTDFTLNIHPVEEEDAATYYCQNSRELPYTFGGGTKLEIK
**A:** 10.55
